From: patent US9115185

Target Desc: T1, HLA-DR3 (DRB*0301), purified from B-lymphoblastic cell line HAR (human)
T1 chain: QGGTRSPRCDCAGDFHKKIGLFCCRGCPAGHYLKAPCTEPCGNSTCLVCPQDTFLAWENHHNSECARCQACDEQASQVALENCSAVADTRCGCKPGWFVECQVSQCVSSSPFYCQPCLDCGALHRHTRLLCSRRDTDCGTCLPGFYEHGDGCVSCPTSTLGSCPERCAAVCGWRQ
Assay Details: competition with fluorescent hsp65 3-13 on purified HLA-DR3
Readout Label: pIC50
Notebook: values listed as pIC50 are -log10 of the concentration (mol/L).

For this binder ( MHGDTPTLHEYMLDLQPETTDL (modifications not checked) [HPV16 E7 peptide 1-22, P03129 1-22] ), measured pIC50 is 6.10

For this binder ( SSTWHWTGHNVKHKSAIVTLTYDSEWQRDQ (modifications not checked) [HPV16 E2 peptide 316-345] ), measured pIC50 is 4.52

For this binder ( FNSSHKGRINCNSNTTPIVHLKGDANTLKC (modifications not checked) [HPV16 E2 peptide 271-300] ), measured pIC50 is 4.43

For this binder ( AIVTLTYDSEWQRDQFLSQVKIPKTITVSTGFMSI (modifications not checked) [HPV16 E2 peptide 331-365] ), measured pIC50 is 5.00

For this binder ( YMLDLQPETTDLYCYEQLNDSS (modifications not checked) [HPV16 E7 peptide 11-32, P03129 11-32] ), measured pIC50 is 4.30

For this binder ( CDSTLRLCVQSTHVDIRTLEDL (modifications not checked) [HPV16 E7 peptide 61-82, P03129 61-82] ), measured pIC50 is 4.19

For this binder ( HYNIVTFCCKCDSTLRLCVQST (modifications not checked) [HPV16 E7 peptide 51-72, P03129 51-72] ), measured pIC50 is 4.30

For this binder ( PAGQAEPDRAHYNIVTFCCKCD (modifications not checked) [HPV16 E7 peptide 41-62, P03129 41-62] ), measured pIC50 is 4.26
